Assay: Repeated dose 28-day oral toxicity study
Format: in vivo, mice
Settings: both sexes, CD1, mouse, in vivo; mice; oral, 28-day study
METRIC: NOAEL at 28 days (mg/kg)
Answers are plain numbers, in mg/kg.

*Q* Fill blank: measured NOAEL at 28 days of the compound c1coc(CNc2ncnc3[nH]cnc23)c1 is ____.
*A* 80

----------
Experiment: Pharmacokinetics of MB-905 in plasma of mice
Conditions: both, CD1, mouse, plasma, po, 30 mg/kg
METRIC: AUC(0-t) (ng·h/mL)
Give bare numbers, in ng·h/mL.

*Q* Bench note: what AUC(0-t) did c1coc(CNc2ncnc3[nH]cnc23)c1 [MB-905, kinetin] show?
*A* 366
